Data provenance is patent US20050004038A1.

Each entry below carries its recorded pIC50.
molecular target: human glutathione S-transferase P1-1 (GSTP1-1) (Homo sapiens)
Sequence (P09211 2-210 limits assumed): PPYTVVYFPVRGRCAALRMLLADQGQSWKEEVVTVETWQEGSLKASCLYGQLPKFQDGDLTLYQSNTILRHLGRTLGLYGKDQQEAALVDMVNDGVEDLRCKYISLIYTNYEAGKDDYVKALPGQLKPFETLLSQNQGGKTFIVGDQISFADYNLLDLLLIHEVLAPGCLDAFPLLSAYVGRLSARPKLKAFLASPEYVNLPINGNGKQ
pIC50: −log10 of the molar value.
measurement-label: pIC50

CCC(CSCC(NC(=O)CCC(N)C(=O)O)C(=O)NCC(=O)O)C(=O)c1ccc(OCC(=O)NCCCC(=O)NCc2cccc(C(N)=O)c2)c(Cl)c1Cl (stereo not drawn) [IIf*, reference compound]    5.82
C=C(CC)C(=O)c1ccc(OCC(=O)NCc2cccc(CNC(=O)COc3ccc(C(=O)C(=C)CC)c(Cl)c3Cl)c2)c(Cl)c1Cl [IVc^]    6.00
CCOC(=O)c1ccc(SCC(NC(=O)CCC(N)C(=O)O)C(=O)NCC(=O)O)c([N+](=O)[O-])c1 (stereo not drawn) [IId*, reference compound]    4.68
CCNCCS(=O)(=O)c1cccc(Nc2cc(S(=O)(=O)O)c(N)c3c2C(=O)c2ccccc2C3=O)c1 [IIId*, reference compound]    5.30
COC(=O)CCCCCCCSCC(NC(=O)CCC(N)C(=O)O)C(=O)NCC(=O)O (stereo not drawn) [If*, reference compound]    5.42
NC(=O)c1cccc(CNC(=O)CCCNCCS(=O)(=O)c2cccc(Nc3cc(S(=O)(=O)O)c(N)c4c3C(=O)c3ccccc3C4=O)c2)c1 [IIIl*, reference compound]    6.07

###

Data export: IC50 values recorded with murine GSTP (Mus musculus, UniProt P19157).
Sequence (P19157 2-210 limits assumed): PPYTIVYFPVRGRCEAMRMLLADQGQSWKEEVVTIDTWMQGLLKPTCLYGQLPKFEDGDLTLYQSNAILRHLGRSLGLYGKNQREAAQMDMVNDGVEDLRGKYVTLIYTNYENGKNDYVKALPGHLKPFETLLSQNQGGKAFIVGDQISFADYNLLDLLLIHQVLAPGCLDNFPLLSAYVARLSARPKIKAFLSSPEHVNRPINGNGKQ
measurement-label: IC50 (µM)

C=C(CC)C(=O)c1ccc(OCC(=O)NCCCCCC(=O)NCc2cccc(CNC(=O)CCCCCNC(=O)COc3ccc(C(=O)C(=C)CC)c(Cl)c3Cl)c2)c(Cl)c1Cl [IVg^]    0.018
C=C(CC)C(=O)c1ccc(OCC(=O)NCc2cccc(CNC(=O)COc3ccc(C(=O)C(=C)CC)c(Cl)c3Cl)c2)c(Cl)c1Cl [IVc^]    0.99

###

molecular target: human glutathione S-transferase A1-1 (GSTA1-1) (Homo sapiens); construct: made in house; host or cells: E. coli; experiment: CDNB assay of GST activity and inhibition, GST A1-1; assay type: biochemical; details: second value of the cell GSTP1-1/GSTA1-1, 20 nM GST
pIC50: −log10 of the molar value.
measurement-label: pIC50

C=C(CC)C(=O)c1ccc(OCC(=O)Nc2ccc(NC(=O)COc3ccc(C(=O)C(=C)CC)c(Cl)c3Cl)cc2)c(Cl)c1Cl [IVb, Bis-1,4-ethacrynyl-phenylenediamine]    5.88
NC(=O)c1cc(CNC(=O)CCNCCS(=O)(=O)c2cccc(Nc3cc(S(=O)(=O)O)c(N)c4c3C(=O)c3ccccc3C4=O)c2)cc(CNC(=O)CCNCCS(=O)(=O)c2cccc(Nc3cc(S(=O)(=O)O)c(N)c4c3C(=O)c3ccccc3C4=O)c2)c1 [IIIg]    5.60

###

biological target: human glutathione S-transferase A1-1 (GSTA1-1) (Homo sapiens, UniProt P08263); construct: made in house; host or cells: E. coli; assay: CDNB assay of GST activity and inhibition, GST A1-1; assay type: biochemical; conditions: second value of the cell GSTP1-1/GSTA1-1, 20 nM GST
Sequence (P08263 whole entry): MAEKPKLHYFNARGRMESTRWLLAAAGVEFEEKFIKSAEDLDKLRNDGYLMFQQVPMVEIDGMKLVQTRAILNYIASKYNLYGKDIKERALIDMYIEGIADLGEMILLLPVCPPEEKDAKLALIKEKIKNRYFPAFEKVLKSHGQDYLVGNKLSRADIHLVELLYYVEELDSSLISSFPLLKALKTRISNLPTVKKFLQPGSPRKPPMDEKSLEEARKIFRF
measurement-label: IC50 (nM)

C=C(CC)C(=O)c1ccc(OCC(=O)NCC(=O)NCc2cc(CNC(=O)CNC(=O)COc3ccc(C(=O)C(=C)CC)c(Cl)c3Cl)cc(C(N)=O)c2)c(Cl)c1Cl [IVd]    23
NC(CCC(=O)NC(CSCCCCCCCCCCOC(=O)CCCCCCCSCC(NC(=O)CCC(N)C(=O)O)C(=O)NCC(=O)O)C(=O)NCC(=O)O)C(=O)O (centres unmarked) [Ic]    160
NC(CCC(=O)NC(CSc1ccc(C(=O)OCCOC(=O)c2cccc(C(=O)OCCOC(=O)c3ccc(SCC(NC(=O)CCC(N)C(=O)O)C(=O)NCC(=O)O)c([N+](=O)[O-])c3)c2)cc1[N+](=O)[O-])C(=O)NCC(=O)O)C(=O)O (centres unmarked) [IIb]    1600
NC(CCC(=O)NC(CSCCCCCCCCCCCCOC(=O)CCCCCCCSCC(NC(=O)CCC(N)C(=O)O)C(=O)NCC(=O)O)C(=O)NCC(=O)O)C(=O)O (centres unmarked) [Ie]    140
